- target-or-test-system: human platelet PDE3 (Homo sapiens, UniProt Q14432)
- Sequence (Q14432 whole entry): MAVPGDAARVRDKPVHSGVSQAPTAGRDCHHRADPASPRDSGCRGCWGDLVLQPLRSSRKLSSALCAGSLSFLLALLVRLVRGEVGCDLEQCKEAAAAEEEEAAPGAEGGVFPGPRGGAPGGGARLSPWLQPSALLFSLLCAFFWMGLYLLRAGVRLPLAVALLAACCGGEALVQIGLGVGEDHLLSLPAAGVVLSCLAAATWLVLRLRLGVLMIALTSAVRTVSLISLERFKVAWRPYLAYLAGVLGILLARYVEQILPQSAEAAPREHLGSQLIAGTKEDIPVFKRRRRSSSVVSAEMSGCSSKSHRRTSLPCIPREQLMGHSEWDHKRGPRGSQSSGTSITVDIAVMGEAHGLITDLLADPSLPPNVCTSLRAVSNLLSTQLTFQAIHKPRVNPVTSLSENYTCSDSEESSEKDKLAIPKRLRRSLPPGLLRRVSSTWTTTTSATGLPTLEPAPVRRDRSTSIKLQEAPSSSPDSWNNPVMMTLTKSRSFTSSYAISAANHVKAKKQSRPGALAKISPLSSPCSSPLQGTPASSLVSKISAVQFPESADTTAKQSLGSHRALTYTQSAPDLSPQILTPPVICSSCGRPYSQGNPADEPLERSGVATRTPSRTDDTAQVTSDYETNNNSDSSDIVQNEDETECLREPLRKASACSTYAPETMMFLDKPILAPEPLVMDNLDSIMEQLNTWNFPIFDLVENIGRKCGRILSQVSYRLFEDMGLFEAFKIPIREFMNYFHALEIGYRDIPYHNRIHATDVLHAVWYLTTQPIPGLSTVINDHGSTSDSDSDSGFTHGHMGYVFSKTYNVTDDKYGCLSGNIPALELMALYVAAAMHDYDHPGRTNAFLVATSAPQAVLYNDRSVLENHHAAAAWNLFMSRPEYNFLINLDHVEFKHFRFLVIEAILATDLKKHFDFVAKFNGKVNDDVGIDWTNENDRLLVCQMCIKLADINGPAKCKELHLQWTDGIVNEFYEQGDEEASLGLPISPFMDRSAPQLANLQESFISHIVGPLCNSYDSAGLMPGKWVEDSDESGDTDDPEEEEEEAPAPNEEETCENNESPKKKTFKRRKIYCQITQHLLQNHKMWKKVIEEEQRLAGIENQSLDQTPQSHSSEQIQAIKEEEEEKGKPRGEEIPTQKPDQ
test-readout: IC50 (nM)
Field: numeric (nM). Do not append units.

Query IC50 on human platelet PDE3 (Homo sapiens, UniProt Q14432) for CC1CC(=O)NN=C1c1ccc(N)c([N+](=O)[O-])c1 (stereo not shown) 15
